assay-name: AUC (0 to t) in Sprague-Dawley rat at 20 mg/kg, ip
Type: ADME, organism-based
Design: dose 20 mg/kg, route intraperitoneal
measurement-conditions: plasma
measurement-kind: AUC(0-t) (ng·h/mL)
Provide only the numeric value, understood in ng·h/mL.

Challenge: Determine from records and report AUC(0-t) for `Cc1ccc(C)c(COc2cc(NC(=O)c3ccc4c(c3)OCO4)ccc2N(C)S(C)(=O)=O)c1`
Response given: 16300

====

assay-name: Apparent oral clearance in Sprague-Dawley rat at 20 mg/kg, ip
Assay type: ADME, organism-based
Design: dose 20 mg/kg
measurement-conditions: in vivo
measurement-kind: CL/F (mL/min)
Write it as a number; the unit mL/min goes unstated.

Challenge: Provide CL/F value for the following molecule: `Cc1ccc(C)c(COc2cc(NC(=O)c3ccc4c(c3)OCO4)ccc2N(C)S(C)(=O)=O)c1`
Response given: 8
